Test system: cerebrospinal fluid (CSF) glycine levels
Assay: CSF-glycine assay after oral administration
Format: in vivo
Conditions: Rattus norvegicus, po, 0.5 h, rats, dose 10 mg/kg, pretreatment 30 mins, read-out: % CSF Glycine Increase versus Vehicle Control
Procedure: This study measured cerebrospinal fluid (CSF) glycine levels after oral administration of test compound. […] After the specified pretreatment time, the rats were euthanized by CO2 asphyxiation and a hypodermic needle was inserted into the cisterna magna to withdraw 50-100 μl of CSF. The CSF was diluted with deuterated-glycine as an internal standard glycine was quantified by LC/MS/MS.
Where a name gives a salt, the structure may show the parent alone.
Quick list: change in vivo at 10 mg/kg per entry.
Note: unit % is implicit; provide only the numeric part.

Please review the following examples before continuing.
- molecule: "Cn1cc(S(=O)(=O)N2CCN(C3(CNC(=O)c4c(F)cccc4F)CCC(F)(F)CC3)CC2)nn1 [compound 189, Hydrochloride]"
  change in vivo at 10 mg/kg [%]: 158
- molecule: "CCCS(=O)(=O)N1CCN(C2(CNC(=O)c3ccc(C(F)(F)F)cc3Cl)CCC(F)(F)CC2)CC1 [compound 151, Hydrochloride]"
  change in vivo at 10 mg/kg [%]: 209
- molecule: "Cn1cc(S(=O)(=O)N2CCN(C3(CNC(=O)c4ccc(F)cc4Cl)CCC(F)(F)CC3)CC2)nn1 [compound 192, Hydrochloride]"
  change in vivo at 10 mg/kg [%]: 195
- molecule: "CCCS(=O)(=O)N1CCN(C2(CNC(=O)c3c(F)cccc3F)CCC(F)(F)CC2)CC1 [compound 130, Hydrochloride]"
  change in vivo at 10 mg/kg [%]: 148
- molecule: "Cn1cnc(S(=O)(=O)N2CCN(C3(CNC(=O)c4c(F)cccc4F)CCC(F)(F)CC3)CC2)c1 [compound 163, Hydrochloride]"
  change in vivo at 10 mg/kg [%]: 123

Now for a further molecule.
Exercise: // lookup change in vivo at 10 mg/kg for Cn1cnc(S(=O)(=O)N2CCN(C3(CNC(=O)c4ccc(F)cc4F)CCC(F)(F)CC3)CC2)c1 [compound 162, Hydrochloride]
Solution: 154

###

biological target: glycine transporter-1 (GlyT-1) (Homo sapiens); construct: JAR cells (ATCC#HTB-144), which endogenously express GlyT-1; host or cells: JAR human choriocarcinoma cells; experiment: [14C]glycine uptake assay in JAR cells endogenously expressing GlyT-1 (scintillation proximity); format: cell-based; conditions: JAR cells, [14C]glycine 5 μM, 3 hour incubation; read-out: GlyT-1 IC50
Sequence (P48067 whole entry): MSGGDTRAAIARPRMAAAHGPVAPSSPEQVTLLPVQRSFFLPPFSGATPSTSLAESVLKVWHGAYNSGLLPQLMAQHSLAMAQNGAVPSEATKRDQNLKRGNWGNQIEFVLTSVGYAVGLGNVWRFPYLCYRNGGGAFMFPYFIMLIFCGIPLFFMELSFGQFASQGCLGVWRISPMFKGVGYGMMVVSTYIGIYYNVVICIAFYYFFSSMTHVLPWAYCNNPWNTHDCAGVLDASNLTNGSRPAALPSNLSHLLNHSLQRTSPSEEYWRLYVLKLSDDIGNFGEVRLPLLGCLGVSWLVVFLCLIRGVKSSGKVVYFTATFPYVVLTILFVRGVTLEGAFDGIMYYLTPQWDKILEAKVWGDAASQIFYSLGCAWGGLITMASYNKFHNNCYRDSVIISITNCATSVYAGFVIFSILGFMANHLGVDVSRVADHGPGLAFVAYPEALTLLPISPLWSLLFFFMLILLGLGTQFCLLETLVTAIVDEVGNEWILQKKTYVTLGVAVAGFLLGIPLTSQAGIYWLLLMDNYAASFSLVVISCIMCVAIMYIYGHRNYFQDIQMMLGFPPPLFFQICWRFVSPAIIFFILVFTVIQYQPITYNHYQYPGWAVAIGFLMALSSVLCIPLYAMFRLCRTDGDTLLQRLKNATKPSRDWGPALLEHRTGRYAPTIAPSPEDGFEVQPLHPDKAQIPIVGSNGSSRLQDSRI
Counter-ions that a name gives are not always drawn.
Param label: returns y when IC50 < 30 nM, returns n otherwise, including exact equality.

- molecule: "CCCS(=O)(=O)N1CCN(C2(CNC(=O)c3ccc(C)c(C)c3)CCCCC2)CC1 [compound 35, Hydrochloride]"
  study_system: "glycine transporter-1 (GlyT-1) (Homo sapiens)"
  assigned_label: "n"
- molecule: "Cn1cnc(S(=O)(=O)N2CCN(C3(CNC(=O)c4ccc(F)cc4Cl)CCC(F)(F)CC3)CC2)c1 [compound 166, Hydrochloride]"
  study_system: "glycine transporter-1 (GlyT-1) (Homo sapiens)"
  assigned_label: "y"
- molecule: "CCCS(=O)(=O)N1CCN(C2(CNC(=O)c3c(Cl)cc(C(F)(F)F)cc3C(F)(F)F)CCC(F)(F)CC2)CC1 [compound 254, Hydrochloride]"
  study_system: "glycine transporter-1 (GlyT-1) (Homo sapiens)"
  assigned_label: "y"
- molecule: "CCCS(=O)(=O)N1CCN(C2(CNC(=O)c3ccccc3OC(F)(F)F)CCC(F)(F)CC2)CC1 [compound 141, Hydrochloride]"
  study_system: "glycine transporter-1 (GlyT-1) (Homo sapiens)"
  assigned_label: "n"
- molecule: "Cc1cccc(F)c1C(=O)NCC1(N2CCN(S(=O)(=O)CC3CC3)CC2)CCCCC1 [compound 80, Hydrochloride]"
  study_system: "glycine transporter-1 (GlyT-1) (Homo sapiens)"
  assigned_label: "y"

As a next step, examine the molecule that follows.
Exercise: Quick check: does CC(NC(=O)c1ccc(C(F)(F)F)cc1Cl)C1(N2CCN(S(=O)(=O)c3cn(C)nn3)CC2)CCCC1 (stereo not drawn) [compound 282, Hydrochloride] have IC50 under 30 nM?
Solution: y
